B1: LINE1-full (parent)
chain: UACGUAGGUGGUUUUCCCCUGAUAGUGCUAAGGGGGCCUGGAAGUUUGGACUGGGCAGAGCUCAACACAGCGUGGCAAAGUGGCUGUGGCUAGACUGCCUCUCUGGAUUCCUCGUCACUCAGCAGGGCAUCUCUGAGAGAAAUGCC

variants of: B1; assay: self-cleavage, relative activity (ratio to wild type); higher = more cleavage; in vitro, sequencing; the parent is a self-cleaving ribozyme
Measured self-cleavage accompanies every entry in the list below.
No unit in the answer, only the number.

Please supply the value of reported self-cleavage for the item U12G G33A
1.47

Please supply the value of reported self-cleavage for the item G53U U108C
1.56

Please supply the value of reported self-cleavage for the item G75A U87G
0.18

Please supply the value of reported self-cleavage for the item G54A C84U
0.08

Please supply the value of reported self-cleavage for the item A6U U26C
0.94

Please supply the value of reported self-cleavage for the item G36A U62C
0.05

Please supply the value of reported self-cleavage for the item U14C G97A
0.09

Please supply the value of reported self-cleavage for the item G8A C38U
1.41

Please supply the value of reported self-cleavage for the item U87A A129G
0.11

Please supply the value of reported self-cleavage for the item G32A A138U
0.89

Please supply the value of reported self-cleavage for the item G27A U134C
1.58

Please supply the value of reported self-cleavage for the item A79G U112C
1.74
